# assay_comment: Inhibition of alpha-glucosidase (unknown origin)
# Design: species or system Homo sapiens
# test_settings: read-out: IC50
Recorded measurements of IC50, one per entry
Give the quantity in µM, number only.

Worked set:
molecule=CC(C)C(=O)c1cc(Br)c(OC(=O)CBr)cc1O result_number=15
molecule=CCCCCC(=O)c1cc(C)c(OC(=O)CI)cc1O result_number=3.9
molecule=Cc1cc(C(=O)C(C)C)c(O)c(Br)c1OC(=O)c1ccc(Cl)cc1 result_number=24.9

Next up:
The measured IC50 associated with "Cc1cc(C(=O)C(C)C)c(O)cc1OC(=O)c1ccccc1" reads 14.6

* * *

# assay_comment: Inhibition of alpha-glucosidase (unknown origin)
# Design: species or system Homo sapiens
# test_settings: read-out: IC50
pIC50: −log10 of the molar value.
Assign Met whenever pIC50 does not fall below 5; assign Not met whenever it does.

smiles=CCCCC(=O)c1cc(C)c(OC(=O)CI)cc1O cat=Met
smiles=CC(=O)Oc1c(C)cc(C(=O)C(C)C)c(O)c1Br cat="Not met"
smiles=CC(C)C(=O)c1ccc(OC(=O)CI)cc1O cat="Not met"
smiles=CCCCCCCC(=O)c1cc(C)c(OC(=O)CI)cc1O cat=Met
smiles=Cc1cc(C(=O)C(C)C)c(O)c(Br)c1OC(=O)CCl cat="Not met"

Input line: Confirm if pIC50 reported for the compound "Cc1cc(C(=O)C(C)C)c(O)cc1O" is 5 or above.
Output line: Not met

Input line: Hi, just wondering whether "CCCCCCC(=O)c1cc(C)c(OC(=O)CI)cc1O" shows pIC50 of 5 or higher.
Output line: Met

Input line: Exam item: decide whether the reported pIC50 for "CCCCCC(=O)c1ccc(O)cc1O" is at least 5.
Output line: Not met
